Reported pIC50 values are given for each entry in this list.
# System name: UniProt:P35354
# Sequence (P35354 18-604): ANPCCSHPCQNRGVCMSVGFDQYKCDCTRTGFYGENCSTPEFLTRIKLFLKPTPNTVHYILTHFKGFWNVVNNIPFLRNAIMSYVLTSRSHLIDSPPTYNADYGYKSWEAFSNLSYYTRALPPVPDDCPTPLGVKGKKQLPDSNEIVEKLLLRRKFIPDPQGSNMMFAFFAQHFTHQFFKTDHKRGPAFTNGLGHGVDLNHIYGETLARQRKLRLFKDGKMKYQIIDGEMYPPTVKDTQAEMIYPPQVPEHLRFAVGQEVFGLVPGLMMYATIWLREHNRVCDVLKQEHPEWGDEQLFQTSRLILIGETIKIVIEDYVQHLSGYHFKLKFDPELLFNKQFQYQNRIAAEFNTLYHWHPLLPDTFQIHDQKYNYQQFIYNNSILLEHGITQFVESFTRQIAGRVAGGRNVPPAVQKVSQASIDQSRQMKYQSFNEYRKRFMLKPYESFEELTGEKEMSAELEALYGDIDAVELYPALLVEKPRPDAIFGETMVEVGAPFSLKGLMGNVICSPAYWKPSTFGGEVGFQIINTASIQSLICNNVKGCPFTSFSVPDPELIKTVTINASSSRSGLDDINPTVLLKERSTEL
# Assay overview: Inhibition of PGE2 release in COS cells stably transfected with human COX-2
# Condition set: COS cells transfected with human COX-2, 30 μM arachidonic acid
pIC50: −log10 of the molar value.
Endpoint label: pIC50

* NS(=O)(=O)c1ccc(-c2c(-c3cccc(F)c3)nn3cc(C(F)(F)F)ccc23)cc1 | 7.47
* NS(=O)(=O)c1ccc(-c2c(-c3ccccc3)nn3cc(C(F)(F)F)ccc23)cc1 | 7.51
* NS(=O)(=O)c1ccc(-c2c(-c3ccc(F)cc3)nn3cc(C(F)(F)F)ccc23)cc1 | 7.47
* CS(=O)(=O)c1ccc(-c2c(-c3ccc(F)cc3)nn3cc(C(F)(F)F)ccc23)cc1 | 7.59
* CCOc1ccc(-c2nn3cc(C(F)(F)F)ccc3c2-c2ccc(S(N)(=O)=O)cc2)cc1 | 7.47
* CS(=O)(=O)c1ccc(-c2c(-c3ccccc3)nn3cc(C(F)(F)F)ccc23)cc1 | 7.52
* CS(=O)(=O)c1ccc(-c2c(-c3cccc(F)c3)nn3cc(C(F)(F)F)ccc23)cc1 | 6.26
